assay: basal HepG2 mitochondrial membrane potential changes, profiling panel, cell-based, JC-1 fluorescence, 24 h, 100 nL compound (AID 1167); conditions: higher = more signal; also: test concentration not given here
value.type: z-score

> print(dat)
                                   compound  assay.value
1  COc1ccc([Si](C)(C)[C@H]2[C@H](CCn3cc([C@H](O)c4ccccc4)nn3)O[C@@]3(C(=O)N(Cc4cccc(N5CCOC5=O)c4)c4ccccc43)[C@@H]2C)cc1       -0.242
2  Cc1ccc(C(C)CC(O)C2C=CC3C(=O)N(C)C(=O)C3N2NC(=O)OC(C)(C)C)o1 (centres undefined)       -0.768
3  Cc1ccc(C(C)CC(O)C2C=CC3C(=O)N(c4ccccc4)C(=O)C3N2Nc2ccc([N+](=O)[O-])cc2)o1 (centres undefined)       -0.414
4  [N-]=[N+]=NCc1ccccc1C[C@]1(C(=O)NCC(O)CO)N=C(c2ccc(OCCCO)cc2)O[C@H]1c1ccccc1 (some centres undefined)        -1.31

====

experiment: HepG2 cell viability effects, profiling panel, calcein-AM fluorescence, 48 h, basal (AID 1164); settings: higher = more signal; also: test concentration not given here
Kindly return Yes if reported z-score is no lower than 0.4; return No if it is lower.

molecule	cat
CCCC=C(CCC)[C@@H](NC(=O)Oc1ccc(F)cc1)c1ccc(C(=O)OC)cc1	No
CC[C@@H]1C=C(C(=O)O)[C@H](c2ccco2)N1S(=O)(=O)c1ccc(C)cc1	No
COc1ccc([Si](C)(C)[C@@H]2[C@@H](CC(=O)N3Cc4ccccc4C[C@H]3CO)O[C@]3(C(=O)N(C)c4c(Br)cc(C)cc43)[C@H]2C)cc1	No
CC(C)(C)OC(=O)CC[C@@]1(C(=O)NCC(O)CO)N=C(c2ccc(OCCCO)cc2)O[C@@H]1c1ccccc1N=[N+]=[N-] (stereo not given in full)	Yes
CC1CC/C=C\[C@H]2OC34C=CCN(C(C)(C)C)C(=O)[C@H]3N(CCCCCCO)C(=O)[C@@H]4C2C(=O)O1 (stereo not given in full)	Yes
COC(=O)[C@@]1(Cc2ccc(F)cc2)[C@@H]2[C@@H](CC(=O)[C@H]2CC(=O)C(=O)N(C)C)CN1C(=O)c1ccccc1	No
COC(=O)C(CC#Cc1ccc2c(c1)[C@]1(C(=O)N2)[C@H](C(=O)O)[C@H]2C(=O)O[C@H](c3ccccc3)[C@H](c3ccccc3)N2[C@@H]1c1ccc(O)cc1)C(=O)OC	No
CC(CO)N1C(=O)[C@@H]2C3C(=O)OCCC/C=C\[C@H]3OC23C=CCN(c2ccc4ccccc4c2)C(=O)[C@@H]13 (stereo not given in full)	Yes
CN(C)CCCNC(=O)[C@@]1(C)c2ccccc2C(=O)N(Cc2cc(F)cc(C(F)(F)F)c2)[C@H]1c1ccc(CO)cc1	No
CC(C)(C)OC(=O)CC[C@]1(C(=O)O)N=C(c2ccc(OCCCO)cc2)O[C@H]1c1ccccc1N=[N+]=[N-]	No
C#CCN(Cc1ccccc1Br)C(/C=C/c1ccccc1)CO (stereo not given)	No
CC(C)(C)OC(=O)CC[C@]1(C(=O)NCC(O)CO)COC(c2ccc(OCCCO)cc2)=N1 (stereo not given in full)	No
CCCCCN1CC=CC23O[C@@H]4/C=C\CCCOC(=O)C4[C@H]2C(=O)N(C(CO)C(C)C)[C@@H]3C1=O (stereo not given in full)	No
C=CCOC(=O)[C@H]1[C@@H]2C(=O)O[C@@H](c3ccccc3)[C@@H](c3ccccc3)N2[C@@H](c2ccc(OCCOC(=O)[C@H]3C[C@H]4C(=O)N[C@@H](CC(C)C)C(=O)N4[C@H]3c3ccc(O)cc3)cc2)[C@]12C(=O)Nc1ccc(I)cc12	Yes

====

test: MM1S myeloma cell viability, profiling panel, resazurin fluorescence, basal, 24 h, PK04 Diversity Set (AID 1174); conditions: higher = more signal, called active from +8 up or from −8 down;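 also: MM1S multiple myeloma cell line; test concentration not given here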

input.smiles	z-score
COCCCNC(=O)[C@@]1(Cc2ccccc2)N=C(c2ccc(OCCCO)cc2)O[C@H]1c1ccccc1	-0.0938
COCCCNC(=O)[C@@]1(Cc2ccccc2N=[N+]=[N-])N=C(c2ccc(OCCCO)cc2)O[C@H]1c1ccccc1N=[N+]=[N-]	-2.32
[N-]=[N+]=Nc1ccccc1C[C@]1(C(N)=O)N=C(c2ccc(OCCCO)cc2)O[C@H]1c1ccccc1	-1.02
COc1cc2c(cc1OC)CN(C(=O)[C@H]1[C@@H]3C(=O)O[C@@H](c4ccccc4)[C@@H](c4ccccc4)N3[C@@H](c3ccc(O)cc3)[C@]13C(=O)Nc1ccc(C#CCNC(N)=O)cc13)CC2	0.187
COC(=O)c1c(CC[C@@H](CO)NC(=O)N[C@@H](C)Cn2cc(C3(O)CCCCC3)nn2)oc(C(C)=O)c1C(=O)OC	-0.131
C=CCNC(=O)[C@@H]1[C@H]2C(=O)O[C@H](c3ccccc3)[C@H](c3ccccc3)N2[C@H](c2ccc(OCCO)cc2)[C@@]12C(=O)Nc1ccc(C#CCCO)cc12	-0.185

====

target: Torsin-1A-interacting protein 2 (Homo sapiens); assay: LULL1 binders on small-molecule microarray, primary screen, cell lysate, human LULL1 lysate, 635/667 nm fluorescence (AID 1092); details: hLULL1 lysate binding, 635 nm fluorescence, higher = more signal;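 also: probe is lysate of COS7 cells overexpressing human LULL1; score merges per-feature 667 nm fluorescence with signal-to-noise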
Kindly return rule met if reported composite z-score is no lower than 2; return rule not met if it is lower.

compound	cat
CN1C(=O)C2C=CC(C(O)c3cccs3)N(Nc3ccccc3)C2C1=O (stereo not given)	rule met
COCCOC(=O)N1C(=O)[C@@]2(c3cc(C#CCCO)ccc31)[C@H](C(=O)Nc1nc3ccccc3s1)[C@H]1C(=O)O[C@H](c3ccccc3)[C@H](c3ccccc3)N1[C@@H]2c1ccc(OCCO)cc1	rule not met
COCCOC(=O)N1C(=O)[C@@]2(c3cc(C#Cc4ccc(OC)cc4)ccc31)[C@H](C(N)=O)[C@H]1C(=O)O[C@H](c3ccccc3)[C@H](c3ccccc3)N1[C@@H]2c1ccccc1OCCO	rule met
O=C1OCCC/C=C\[C@H]2OC34C=CCN(Cn5nnc6ccccc65)C(=O)[C@H]3N(CCO)C(=O)[C@@H]4C12 (stereo not given in full)	rule not met
COC(=O)C(CC#Cc1ccc2c(c1)[C@]1(C(=O)N2)[C@H](C(=O)O)[C@H]2C(=O)O[C@H](c3ccccc3)[C@H](c3ccccc3)N2[C@@H]1c1ccc(O)cc1)C(=O)OC	rule met
C=CCNC(=O)[C@H]1[C@@H]2C(=O)O[C@@H](c3ccccc3)[C@@H](c3ccccc3)N2[C@@H](c2ccc(OCCO)cc2)[C@]12C(=O)N(C(=O)OCCOC)c1ccccc12	rule met
O=C1C2C=CC(C(O)C(c3ccccc3)c3ccccc3)N(n3cnnc3)C2C(=O)N1Cc1ccccc1 (stereo not given)	rule met
C#CCN(Cc1ccccc1Br)C(/C=C/c1ccccc1)CO (stereo not given)	rule not met
COCCCN1C(=O)[C@@]2(Cc3ccccc31)c1ccccc1C(=O)N(Cc1ccccc1C(F)(F)F)[C@H]2c1ccc(CO)cc1	rule met
CC(C)(C)OC(=O)CC[C@@]1(C(N)=O)N=C(c2ccc(OCCCO)cc2)O[C@@H]1c1ccccc1	rule met
O=C1O[C@@H](c2ccccc2)[C@@H](c2ccccc2)N2[C@@H](c3ccccc3OCCO)[C@]3(C(=O)Nc4ccc(C#CC5=CCCCC5)cc43)[C@@H](C(=O)Nc3nc4ccccc4s3)[C@H]12	rule met
COc1ccc(C(=O)Nc2ccc(CN3C(=O)[C@@]4(O[C@@H](CCn5cc([C@H](O)c6ccccc6)nn5)[C@H]([Si](C)(C)c5ccc(OC)cc5)[C@H]4C)c4ccccc43)cc2)cc1	rule not met
COc1ccc(CCNC(=O)[C@@]2(Sc3ccc(C)cc3)CC(=O)N(C3CCCCC3)[C@@H]2c2ccc(CO)cc2I)cc1	rule met
CC1CC/C=C\[C@H]2OC34C=CCN(C(C)(C)C)C(=O)[C@H]3N(CCCCCCO)C(=O)[C@@H]4C2C(=O)O1 (stereo not given in full)	rule not met
CN(C)C(=O)[C@@]1(Cc2ccccc2CN=[N+]=[N-])N=C(c2ccc(OCCCO)cc2)O[C@H]1c1ccccc1	rule met
COC(=O)C=C(CC(O)c1cccc(Cl)c1)OC (stereo not given)	rule met
CCCC[C@@H]1C[C@H]1[C@@H](NC(=O)c1ccco1)c1ccc(Cl)cc1	rule met
O=C1NC(=O)C2C1C=CC(C(O)Cc1ccccc1)N2Nc1ccc(Cl)cc1Cl (stereo not given)	rule met
COc1ccc([Si](C)(C)[C@@H]2[C@@H](CCO)O[C@]3(C(=O)N(Cc4ccc(N5C(=O)COc6ccccc65)cc4)c4ccccc43)[C@H]2C)cc1	rule met

====

molecular target: Torsin-1A (Homo sapiens) (UniProt O14656); test: small-molecule binders of mutant TOR1A in lysate, primary screen, cell lysate, small-molecule microarray, COS7 lysate, 635/667 nm fluorescence (AID 1150); settings: COS7 hTOR1A mutant lysate, 635 nm fluorescence, higher = more signal;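 also: score pools 667 nm emission and signal to noise measuring lysate protein binding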
Sequence (O14656 whole entry, looked up): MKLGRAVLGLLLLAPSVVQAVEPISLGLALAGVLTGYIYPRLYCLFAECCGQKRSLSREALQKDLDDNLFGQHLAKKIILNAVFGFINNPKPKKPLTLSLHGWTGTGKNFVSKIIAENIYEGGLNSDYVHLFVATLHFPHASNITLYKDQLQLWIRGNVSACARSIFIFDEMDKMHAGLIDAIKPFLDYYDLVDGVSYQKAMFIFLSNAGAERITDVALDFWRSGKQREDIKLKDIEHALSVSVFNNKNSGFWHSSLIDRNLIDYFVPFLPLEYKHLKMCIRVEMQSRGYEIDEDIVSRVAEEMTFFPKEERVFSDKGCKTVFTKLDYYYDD

compound	composite z-score
COC(=O)C(CC#Cc1ccc2c(c1)[C@]1(C(=O)N2)[C@H](c2ccc(O)cc2)N2[C@H](c3ccccc3)[C@H](c3ccccc3)OC(=O)[C@H]2[C@@H]1C(=O)Nc1nc2ccccc2s1)C(=O)OC	1.21
C=CC[C@]1(C(=O)N2CCCCC2)N=C(c2ccc(OCCCO)cc2)O[C@H]1c1ccccc1	1.11
CCC(CC)C(O)C1C=CC2C(=O)N(C)C(=O)C2N1Nc1ccccc1 (stereo not drawn)	0.235
